Target: T1, Fusion protein of extracellular domain of cynomolgus monkey TIGIT and mouse IgG2a Fc fragment (cynomolgus … (cynomolgus monkey))
T1 construct: The entry includes the signal peptide (limits not recoverable) and the mouse IgG2a Fc
T1 sequence (chain, as listed by the source limits assumed): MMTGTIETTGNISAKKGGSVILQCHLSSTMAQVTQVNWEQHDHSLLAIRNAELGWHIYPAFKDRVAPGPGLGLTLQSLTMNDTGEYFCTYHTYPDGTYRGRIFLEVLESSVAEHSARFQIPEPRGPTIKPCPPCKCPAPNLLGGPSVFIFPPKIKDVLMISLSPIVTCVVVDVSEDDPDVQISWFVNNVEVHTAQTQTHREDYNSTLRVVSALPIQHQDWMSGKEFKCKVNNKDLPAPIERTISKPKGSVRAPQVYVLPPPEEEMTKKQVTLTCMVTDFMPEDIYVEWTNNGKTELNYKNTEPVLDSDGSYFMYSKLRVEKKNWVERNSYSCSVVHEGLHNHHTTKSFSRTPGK
Test: ELISA, cynomolgus monkey TIGIT ECD-mFc
REPORTED_ENDPOINT: EC50 (nM)
Give just the numeric value; nM need not be written.

Solved cases (2 shown):
binder="TIGIT-006-H2L1 (antibody, V domains shown, Humanized anti-TIGIT antibody) VH: EVQLQESGPGLVKPSETLSLTCAVSGYSMTSDYWNWIRQPPGKGLEWIGYISYSGRTYYNPSLKSRVTISRDTSKNQFSLKLSSVTAADTAVYYCARGDYSNYGGAMYDWGQGTTVTVSS VL: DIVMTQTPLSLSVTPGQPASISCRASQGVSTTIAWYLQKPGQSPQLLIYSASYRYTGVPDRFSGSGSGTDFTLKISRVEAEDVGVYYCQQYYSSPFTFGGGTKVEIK" reported_endpoint=EC50 unit_descriptor=nM measured_result=2.88
binder="TIGIT-CHI-002 (antibody, V domains shown, Human-mouse chimeric antibody) VH: EVQLQESGPGLAKPSQTLSLACSVTGYSITSDSWNWIRKFPGNKLEYMGYISYSGNTYYNPSLKSRISITRDTSKNQFYLQLNSVTTEDTATYYCARLDFSNYGGAVDYWGQGTSVTVSS VL: DIVMTQSHTFMSTSVGDRVSITCKASQNVRTAVAWYQQKPGQSPKLMIYSASYRYTGVPDRFTGSGSGTDFTFTISSVQAEDLAVYYCQQYYTTPWTFGGGAKLEIQ" reported_endpoint=EC50 unit_descriptor=nM measured_result=0.02

Please find the next binder below.
Value of EC50 reported for the binder TIGIT-006-H4L2 (antibody, V domains shown, Humanized anti-TIGIT antibody) VH: EVQLQESGPGLVKPSETLSLTCAVSGYSMTSDYWNWIRQPPGKKLEWMGYISYSGRTYYNPSLKSRITISRDTSKNQFSLKLSSVTAADTAVYYCARGDYSNYGGAMYDWGQGTTVTVSS VL: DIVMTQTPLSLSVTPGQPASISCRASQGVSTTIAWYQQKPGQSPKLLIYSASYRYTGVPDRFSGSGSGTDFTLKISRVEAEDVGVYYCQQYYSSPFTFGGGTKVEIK is 0.997
